Reference source for all entries: patent EP1210336B1

Test system: HIV-1 variant A98G
Experiment: Cytopathic cell killing assay, cross-resistance profile, infected MT-4 cells
Assay type: cell-based
Settings: Human immunodeficiency virus 1, MT4, Table 4; isolate A98G
Protocol: The various HIV isolates tested in the Figures are those corresponding to wild-type virus (NL4-3) and the other strains listed by their RT mutations. The three 4xAZT isolates included in the Figures represent AZT drug-resistant variants. […] After six days of incubation at 37°C, cell viability was determined spectrophotometrically at 450 nm for each well, using the metabolic reduction of XTT to a soluble colored formazan. […]
Items are presented alongside their recorded EC50.
observable: EC50 (µM)

>>> df
                                   molecule  measurement
0  Fc1cccc(F)c1Cn1c(-c2c(F)cccc2F)nc2ccccc21         4.75
1  Fc1cccc(F)c1C1SCc2nc3ccccc3n21 (stereo not shown) [TZB, reference compound]         17.7
2  CC1Cn2c(=O)[nH]c3cccc(c32)CN1 (stereo not shown) [TIBO, reference compound]           11
3  Cc1cccc2c1nc(-c1c(F)cccc1F)n2Cc1c(F)cccc1F          1.4

###

Test system: HIV-1 variant L74V
Assay: Cytopathic cell killing assay, cross-resistance profile, infected MT-4 cells
Type: cell-based
Settings: Human immunodeficiency virus 1, MT4, Table 9; isolate 1.74 V
# note: exactly 500 nM is not below, so it is no (0); use yes (1) for EC50 strictly under it

>>> df
                                   molecule  assigned_label
0  Cc1ccnc2c1NC(=O)c1cccnc1N2C1CC1 [nevirapine, reference compound]         yes (1)
1  Fc1cccc(F)c1Cn1c(-c2c(F)cccc2F)nc2ccccc21          no (0)
2  CC1Cn2c(=O)[nH]c3cccc(c32)CN1 (centres unmarked) [TIBO, reference compound]         yes (1)
3  Cc1cccc2c1nc(-c1c(F)cccc1F)n2Cc1c(F)cccc1F         yes (1)

###

IC50 reference
Target: HIV-1 WT RT (Human immunodeficiency virus type 1 group M subtype B)
Construct: purified RT protein (0.015 mg/mL) was incubated in a 100 µL reaction mixture
Assay: biochemical
observable: IC50 (µM)

>>> df
                                   compound                            assayed_target  observable  unit_of_measure  measurement
0  Fc1cccc(F)c1C1SCc2nc3ccccc3n21 (centres unmarked) [TZB, reference compound]  HIV-1 WT RT (Human immunodeficiency virus type 1 group M subtype B)        IC50               µM          0.5
1  CCc1cccc2c1nc(-c1c(F)cccc1F)n2Cc1c(F)cccc1F  HIV-1 WT RT (Human immunodeficiency virus type 1 group M subtype B)        IC50               µM         17.5

###

# key: entry, value: pIC50
Target: HIV-1 WT RT (Human immunodeficiency virus type 1 group M subtype B, UniProt P03366)
Construct: purified RT protein (0.015 mg/mL) was incubated in a 100 µL reaction mixture
Assay: biochemical
Details: HIV-1 WT RT; read-out: IC50
pIC50: −log10 of the molar value.
observable: pIC50

>>> print(df.to_string())
                                   molecule                            assayed_target  measurement
0  COc1cccc2c1nc(-c1c(F)cccc1F)n2Cc1c(F)cccc1F [compound 44]  HIV-1 WT RT (Human immunodeficiency virus type 1 group M subtype B, UniProt P03366)         8.14
1  Cc1cccc2c1nc(-c1c(F)cccc1F)n2Cc1c(F)cccc1F [compound 33]  HIV-1 WT RT (Human immunodeficiency virus type 1 group M subtype B, UniProt P03366)         6.70
